target: human ether-à-go-go-related gene (hERG) potassium channel (human, UniProt Q12809); test: primary screen, population patch clamp on CHO cells stably expressing hERG; higher = less effect of the substance
Sequence (Q12809 whole entry, looked up): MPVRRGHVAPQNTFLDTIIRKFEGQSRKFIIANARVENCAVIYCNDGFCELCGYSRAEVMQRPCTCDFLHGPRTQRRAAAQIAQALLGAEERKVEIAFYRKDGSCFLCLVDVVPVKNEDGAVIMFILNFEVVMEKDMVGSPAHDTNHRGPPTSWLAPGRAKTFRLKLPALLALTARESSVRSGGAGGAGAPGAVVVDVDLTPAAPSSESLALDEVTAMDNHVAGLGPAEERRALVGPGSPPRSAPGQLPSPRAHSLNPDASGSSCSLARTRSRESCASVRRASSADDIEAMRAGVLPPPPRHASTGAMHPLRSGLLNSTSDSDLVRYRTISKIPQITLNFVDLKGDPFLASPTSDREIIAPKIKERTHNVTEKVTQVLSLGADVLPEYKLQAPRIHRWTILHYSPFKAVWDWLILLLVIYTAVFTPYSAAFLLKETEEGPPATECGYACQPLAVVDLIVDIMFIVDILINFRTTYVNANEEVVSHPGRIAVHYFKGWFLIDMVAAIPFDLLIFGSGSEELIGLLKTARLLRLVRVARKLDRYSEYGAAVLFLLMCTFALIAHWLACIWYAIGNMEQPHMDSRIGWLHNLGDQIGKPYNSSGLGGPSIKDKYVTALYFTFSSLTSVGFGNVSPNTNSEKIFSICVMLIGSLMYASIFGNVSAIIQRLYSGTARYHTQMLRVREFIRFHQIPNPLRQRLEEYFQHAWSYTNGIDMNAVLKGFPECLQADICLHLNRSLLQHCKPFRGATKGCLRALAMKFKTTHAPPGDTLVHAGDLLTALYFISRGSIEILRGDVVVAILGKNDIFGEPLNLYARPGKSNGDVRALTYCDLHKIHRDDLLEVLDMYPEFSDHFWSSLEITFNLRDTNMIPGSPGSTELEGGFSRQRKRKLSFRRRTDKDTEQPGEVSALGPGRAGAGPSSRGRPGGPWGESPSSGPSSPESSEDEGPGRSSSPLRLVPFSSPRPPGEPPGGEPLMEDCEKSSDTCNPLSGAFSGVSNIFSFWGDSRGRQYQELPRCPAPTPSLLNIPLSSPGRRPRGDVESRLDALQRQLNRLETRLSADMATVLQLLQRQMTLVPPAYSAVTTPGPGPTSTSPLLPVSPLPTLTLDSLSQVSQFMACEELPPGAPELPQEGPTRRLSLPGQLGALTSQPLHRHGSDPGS
In all, about 310,000 compounds went through this assay and about 14,000 (4.5%) showed an effect of 50% or more. The effect is printed as a negative number. The list comes from a sample in which strong results are over-represented; it also holds close analogues and randomly drawn compounds.
assay_metric: hERG current change (%, negative = inhibition) at 10uM (%)
Answers are plain numbers, in %.

Consider the worked cases shown below.
Cc1nc2ccccc2c2oc(C(=O)N3CCC(N4CCCCC4)CC3)cc12 : -38.8
CCCn1c2ccccc2c2cnn(CC(=O)OC)c(=O)c21 : -0.361
CCNC(=O)N1CCCC(C(=O)c2ccc3cc(OC)ccc3c2)C1 (stereo not shown) : -22.5
CCOC(=O)N1CCC(N2CCCC(CO)(Cc3ccccc3C)C2)CC1 (stereo not shown) : 0.621
Cc1ccc(-c2c(C(=O)N3CCOCC3)oc(=O)c3ccccc23)cc1 : -17.8

Below are 5 compounds. Give each one its hERG current change (%, negative = inhibition) at 10uM.
1. O=C(c1oc(=O)c2ccccc2c1-c1ccccc1)N1CCC(O)CC1
2. O=C(CC1C(=O)NCCN1CC(c1ccccc1)c1ccccc1)NCC1CCOCC1 (stereo not shown)
3. CCCn1c2ccccc2c2cnn(CC(=O)NCCN(C)C)c(=O)c21
4. CC(=O)c1sc2nc(-c3ccco3)ccc2c1N
5. O=C(c1oc(=O)c2ccccc2c1-c1ccccc1)N1CCOCC1

stdout:
1. -11.6
2. 6.24
3. -60.1
4. 0.505
5. -24.6

====

biological target: human ether-à-go-go-related gene (hERG) potassium channel (human, UniProt Q12809); experiment: primary screen, population patch clamp on CHO cells stably expressing hERG; higher = less effect of the substance
Among all 310,000 compounds or so, about 14,000 (4.5%) showed an effect of 50% or more. The effect is printed as a negative number. Only a selection was taken, and strong results are over-represented in it overall.
Label label 1 when hERG current change (%, negative = inhibition) at 10uM >= -10%; otherwise label 0.

Cc1ccc(NC(=O)CSc2nnc(C)n2-c2ccccc2)cc1 : label 1
Cc1ccccc1-n1c(SC(C)C(N)=O)nnc1-c1cccnc1 (centres unmarked) : label 1
O=C(CSc1nnc2ccc(-c3cccnc3)nn12)Nc1ccc(F)cc1 : label 0

stdin: Say whether O=C(CSc1nnc(-c2cccnc2)n1-c1ccccc1)Nc1ccccn1 shows hERG current change (%, negative = inhibition) at 10uM of -10% or more.
stdout: label 0

====

target: human ether-à-go-go-related gene (hERG) potassium channel (human, UniProt Q12809); experiment: primary screen, population patch clamp on CHO cells stably expressing hERG; higher = less effect of the substance;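 also: peak tail current of the secondary pulse compared with the same well before compound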
In all, about 310,000 compounds went through this assay and about 14,000 (4.5%) showed an effect of 50% or more. Effects have a minus sign here. Many of the other results were omitted from the sample, so strong results are more common in it than they were.
assay_metric: hERG current change (%, negative = inhibition) at 10uM (%)
Answers are plain numbers, in %.

CC(C)OCCCN(C)C1CCN(S(=O)(=O)c2csc(C(N)=O)c2)CC1 : 13.1
CC1CCc2c(sc(NC(=O)COC(=O)c3ccccc3NCc3ccco3)c2C#N)C1 (centres unmarked) : 7.34
O=c1c(C(c2nnnn2C2CCCCC2)N2CCCCC2)coc2ccc(Cl)cc12 (centres unmarked) : 0.931
CC1CCc2c(sc(NC(=O)CN3CCN(C(=O)c4ccco4)CC3)c2C#N)C1 (centres unmarked) : -41.5

Okay, next one:
stdin: Give its hERG current change (%, negative = inhibition) at 10uM value. Item: CC(C)OCCCN(C)C1CCN(S(=O)(=O)c2ccc(-c3cc(C(F)(F)F)no3)s2)CC1
stdout: -54.6

====

For each of the compounds below, state its hERG current change (%, negative = inhibition) at 10uM.
target: human ether-à-go-go-related gene (hERG) potassium channel (human); assay: primary screen, population patch clamp on CHO cells stably expressing hERG; higher = less effect of the substance;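 also: peak tail current of the secondary pulse compared with the same well before compound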
Among all 310,000 compounds or so, about 14,000 (4.5%) showed an effect of 50% or more. The effect is printed as a negative number. The list comes from a sample in which strong results are over-represented; it also holds close analogues and randomly drawn compounds.
One number for each entry, in %.

Answered cases to consult:
NC(=O)c1cc([N+](=O)[O-])ccc1NCc1cnccn1 : -12.9
CSc1ccccc1NC(=O)CN1CCN(S(=O)(=O)c2ccccc2[N+](=O)[O-])CC1 : -52.2

Would you be so kind as to report hERG current change (%, negative = inhibition) at 10uM for each listed record?
1. COc1ccc(N2CCN(CC(=O)Nc3ccccc3SC)CC2)cc1
2. CN(C)S(=O)(=O)c1cc(NC(=O)CN2CCOCC2)ccc1Cl
3. CC(=O)c1ccc(OCC(O)CN2CCN(Cc3ccccc3)CC2)cc1.Cl (stereo not shown)
4. CCC(=O)c1ccc(OCC(O)CN2CC(C)OC(C)C2)cc1.O=C(O)C(=O)O (stereo not shown)
5. COc1ccccc1NC(=O)CN1CCN(Cc2ccccc2)CC1
6. CSc1ccccc1NC(=O)CN1CCCCC1
7. CC(=O)c1ccc(OCC(O)CN2CCC(C)CC2)cc1.Cl (stereo not shown)
8. O=[N+]([O-])c1ccc(Cc2ccccn2)cc1

stdout:
-5.77
17.7
-48.2
14
-67.6
8.96
-31.6
-15.7

// for each compound in input: emit hERG current change (%, negative = inhibition) at 10uM
1. OC(COc1ccc(OCC(O)CN2CCN(Cc3ccccc3)CC2)cc1)CN1CCN(Cc2ccccc2)CC1 (stereo not shown)
2. CCN1CCC(NC(=O)Nc2cc(Cl)ccc2OC)CC1

stdout:
5.65
-2.83

====

target: human ether-à-go-go-related gene (hERG) potassium channel (human); assay: primary screen, population patch clamp on CHO cells stably expressing hERG; higher = less effect of the substance;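 also: peak tail current of the secondary pulse compared with the same well before compound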
In all, about 310,000 compounds went through this assay and about 14,000 (4.5%) showed an effect of 50% or more. Effects have a minus sign here. The entries come from a sample that favours strong results as a whole.
Tag: Fulfilled if measured hERG current change (%, negative = inhibition) at 10uM is not below 10%, Not fulfilled if it is.

Cn1cc(-c2ccccc2C(=O)O)c(=O)c2cc(Cl)ccc21 : Fulfilled
O=C(c1cn(Cc2ccccc2)c2ccccc12)C1CC1 : Not fulfilled
O=C(O)Cc1cn(Cc2cccc(Cl)c2)c2ccccc12 : Fulfilled

stdin: Could you verify whether the entry Cc1ccc(C(=O)NCCNS(=O)(=O)c2ccccc2)cn1 shows hERG current change (%, negative = inhibition) at 10uM of no less than 10%?
stdout: Fulfilled

stdin: Assess whether reported hERG current change (%, negative = inhibition) at 10uM for O=C(COc1ccccc1)c1cn(Cc2ccccc2)c2ccccc12 sits at 10% or higher.
stdout: Not fulfilled

stdin: Has Cc1ccc(C(=O)NCCNC(=O)c2ccc(C)nc2)cc1 a recorded hERG current change (%, negative = inhibition) at 10uM greater than or equal to 10%?
stdout: Not fulfilled

====

Target: human ether-à-go-go-related gene (hERG) potassium channel (human, UniProt Q12809);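 also: peak tail current of the secondary pulse compared with the same well before compound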
Assay: primary screen, population patch clamp on CHO cells stably expressing hERG; higher = less effect of the substance
Description: Briefly, Chinese hamster ovary (CHO) cells stably expressing the hERG channel were dislodged from tissue culture flasks and dispensed into PPC plates. […] During the recording, background leak currents were estimated by a 100 ms step to -80 mV from an initial holding potential of -70 mV and subtracted from the subsequent current measurement. The campaign was conducted in two phases using slight differences in recording protocol. […]
Hit rate of the full screen: of about 310,000 compounds, about 14,000 (4.5%) showed an effect of 50% or more. Effects have a minus sign here. For the sample, strong results were picked, then their nearest neighbours and some compounds at random.
assay_metric: hERG current change (%, negative = inhibition) at 10uM (%)
Numbers only, in %.

Record excerpt, results attached:
CC(C)NC(=O)C(=O)Nc1cc2c3c(c1)CCC(=O)N3CCC2 : 11.4
O=C(CN1CCN(c2ccccn2)CC1)NCc1cccs1 : -26.2

# batch: return hERG current change (%, negative = inhibition) at 10uM for each of the 6 molecules below
1. CCOc1cccc(-c2c(C(=O)N/N=C(\C)c3ccncc3)nnn2-c2nonc2N)c1
2. Cn1c(CN2CCN(c3ccccc3NS(C)(=O)=O)CC2)nc2ccccc21
3. Cc1cc(C=C2C(=O)c3ccccc3C2=O)c(C)n1-c1ccccc1
4. CN1CCN(Cc2nc3ccccc3n2C)CC1CCO (stereo not shown)
5. Cc1ccc(S(=O)(=O)n2c(CN3CCCC(C)C3)nc3ccccc32)cc1 (stereo not shown)
6. Cl.O=C(CCc1ccc(S(=O)(=O)N2CCOCC2)cc1)N1CCN(Cc2ccc3c(c2)OCO3)CC1

stdout:
1. -43.6
2. -61.5
3. 7.13
4. 3.83
5. -14.6
6. -34.3

For each listed entry, give its hERG current change (%, negative = inhibition) at 10uM.
1. O=C(NCC(=O)N1CCCCCC1)c1ccc(Br)cc1
2. Cc1ccc(S(=O)(=O)N2CCN(Cc3nc4ccccc4n3C)CC2)cc1

stdout:
-7.84
-53.5
